test: cAMP Responsive Elements (CRE) small molecule antagonists, cell-based qHTS assay (AID 1963591); conditions: CRE-bla HEK293T, beta-lactamase FRET ratio; series mostly up to 92.4 µM; note: % is set by controls: 0 for no effect and ±100 for the full control effect
Records with an inconclusive call do not appear. The source made the active and inactive calls. Calls come from the whole dose curve; as a rule, active = well fitted inhibition curve with a large enough effect in the signal ratio in the repeat runs (not every such curve was filed as active); inconclusive = weak or mixed curves, or effect the other way; inactive = flat fitted curve, though single readings scatter; the % refers to the signal ratio.
Parameter: outcome

> print(dat)
                        structure.as.smiles  recorded.measurement
1                         CCCCCC[n+]1ccccc1              inactive
2  C[C@]12CC[C@H]3[C@@H](CCC4=CC(=O)CC[C@@H]43)[C@@H]1CC[C@@H]2O              inactive
3                 CCCCc1c(C)nc(NCC)[nH]c1=O              inactive

###

assay: p53 small molecule agonists, cell-based qHTS assay with human liver microsomes: qHTS cell viability counter screen (AID 1963579); details: p53RE-bla HCT-116 viability, ATP luminescence, 16 h, HLM; series mostly up to 66 µM; note: nearly all actives have a fitted effect of over 45% in size
Results filed as inconclusive are left out. Active and inactive are the calls of the source. Calls come from the whole dose curve.
Parameter call: string, one of active, inactive

As a guide, the following entries are already answered.
> print(dat)
                                  compound  class.label
1  CCC(Cl)[N+](=O)[O-] (centres undefined)     inactive
2                          NNC(=O)c1ccccc1       active
3                              CCCCCCCCCBr     inactive

From here, focus on the item given below.
// query Could you kindly confirm the outcome this assay logged for CC1COC2(c3ccccc3Cl)c3cc(Cl)ccc3NC(=O)CN12 (centres undefined) ?
// result inactive

###

molecular target: Muscarinic acetylcholine receptor M1 (Homo sapiens); experiment: Cholinergic receptor muscarinic 1 (CHRM1) small molecule antagonists, cell-based qHTS assay (AID 1963588); settings: CHRM1-CHO antagonist mode, calcium flux fluorescence; series mostly up to 61.5 µM; note: % is set by controls: 0 for no effect and ±100 for the full control effect; nearly all actives have a fitted effect of over 40% in size
Results filed as inconclusive are left out. Activity calls are given as the source filed them. The call rests on the fitted dose curve.
Parameter call: string, one of active, inactive

As a guide, the following entries are already answered.
> print(dat)
                        compound                            assayed.system  class.label
1  CC(O)CCO (stereo unspecified)  Muscarinic acetylcholine receptor M1 (Homo sapiens)     inactive
2                        CCCCC#N  Muscarinic acetylcholine receptor M1 (Homo sapiens)     inactive

From here, focus on the item given below.
// query Could you kindly confirm the outcome this assay logged for O=P(O)(O)CN(CP(=O)(O)O)CP(=O)(O)O ?
// result inactive

###

assay: p53 small molecule agonists, cell-based qHTS assay (AID 1963582); settings: HCT-116 p53RE-bla reporter, beta-lactamase FRET ratio, 16 h; series mostly up to 66 µM; note: % is set by controls: 0 for no effect and ±100 for the full control effect
Results filed as inconclusive are left out. Active and inactive are the calls of the source. The call rests on the fitted dose curve; in most records, active means well fitted activation curve with a large enough effect in the signal ratio in the repeat runs (not every such curve was filed as active); inconclusive means weak or mixed curves; inactive means flat fitted curve, though single readings scatter; the % refers to the signal ratio.
Parameter call: string, one of true = active, false = inactive

As a guide, the following entries are already answered.
> print(dat)
                                   compound  class.label
1                     C/C=C/c1ccc2c(c1)OCO2        false
2                          Cc1ccc(Cl)c(O)c1        false
3                     O=C(O)c1ccc(=O)[nH]c1        false
4                               Oc1ccccc1Cl        false
5  CC(C)(c1ccccc1)c1cc(-n2nc3ccccc3n2)c(O)c(C(C)(C)c2ccccc2)c1        false

// query Could you kindly confirm the outcome this assay logged for CN(C)CCO ?
// result false

// query Could you kindly confirm the outcome this assay logged for BrCc1ccc(Br)cc1 ?
// result false

// query Could you kindly confirm the outcome this assay logged for CNC(=S)S ?
// result false

// query Could you kindly confirm the outcome this assay logged for CCOP(OCC)OCC ?
// result false

// query Could you kindly confirm the outcome this assay logged for CCC1(c2ccccc2)CCC(=O)NC1=O (configuration not stated) ?
// result false

// query Could you kindly confirm the outcome this assay logged for C(CCOCC1CO1)COCC1CO1 (configuration not stated) ?
// result false

###

target: D(2) dopamine receptor (Homo sapiens); test: Dopamine D2 receptor (DRD2) small molecule antagonists, cell-based qHTS assay (AID 1963595); conditions: HEK293-DRD2 cAMP HTRF antagonist mode; series mostly up to 92.4 µM; note: % is set by controls: 0 for no effect and ±100 for the full control effect
Records with an inconclusive call do not appear. Calls of active or inactive are those of the source. Calls come from the whole dose curve; as a rule, active = well fitted inhibition curve with a large enough effect in the signal ratio in the repeat runs, with a control signal flat; inconclusive = weak or mixed curves, or effect the other way; inactive = flat fitted curve, though single readings scatter; the % refers to the signal ratio.
Parameter: outcome

> print(dat)
     structure.as.smiles  recorded.measurement
1    COC(=O)C(Cl)C(=O)OC              inactive
2      CC(C)c1ccc(CO)cc1              inactive
3        N#Cc1ccc(Cl)cc1              inactive
4  O=C(O)c1ccc(=O)[nH]c1              inactive
5        CCOS(=O)(=O)OCC              inactive

Next, consider the following compound.
// query For the compound O=[N+]([O-])c1ccc(Cl)c([N+](=O)[O-])c1 , report outcome.
// result inactive

###

experiment: p53 small molecule agonists, cell-based qHTS assay: qHTS cell viability counter screen (AID 1963581); details: p53RE-bla HCT-116 viability, ATP luminescence, 16 h; series mostly up to 66 µM; note: % is set by controls: 0 for no effect and ±100 for the full control effect; nearly all actives have a fitted effect of over 45% in size
Results filed as inconclusive are left out. Activity calls are given as the source filed them. Calls come from the whole dose curve.
Parameter call: string, one of T for active, F for inactive

As a guide, the following entries are already answered.
> print(dat)
                                   compound  class.label
1   Nc1c(Br)cc([N+](=O)[O-])cc1[N+](=O)[O-]            F
2                      CC1(C)Cc2cccc(O)c2O1            F
3  C/C(=N\NC(=O)Nc1cc(F)cc(F)c1)c1ncccc1C(=O)O            F
4                           CCn1cc[n+](C)c1            F

// query Could you kindly confirm the outcome this assay logged for CC(C)CCCCCCOC(=O)c1ccccc1C(=O)OCCCCCCC(C)C ?
// result F

// query Could you kindly confirm the outcome this assay logged for CCCCOC(=O)CCC(=O)OCCCC ?
// result F

// query Could you kindly confirm the outcome this assay logged for Oc1ccc(-c2ccccc2)cc1 ?
// result F

// query Could you kindly confirm the outcome this assay logged for OCC(Br)CBr (stereo not given) ?
// result F

// query Could you kindly confirm the outcome this assay logged for N#Cc1ccc(O)cc1 ?
// result F

// query Could you kindly confirm the outcome this assay logged for Nc1cnn(-c2ccccc2)c(=O)c1Cl ?
// result F

// query Could you kindly confirm the outcome this assay logged for ClCc1ccccn1 ?
// result F

// query Could you kindly confirm the outcome this assay logged for C/C=C/CC#N ?
// result F

###

biological target: Gonadotropin-releasing hormone receptor (Homo sapiens); experiment: Human gonadotropin-releasing hormone receptor (GnRHR) small molecule agonists, calcium flux assay in GnRHR-HEK293 cells (AID 1920063); conditions: calcium flux fluorescence, agonist mode; series mostly up to 57.6 µM; note: nearly all actives have a fitted effect of over 35% in size
The source made the active and inactive calls. Calls come from the whole dose curve.
Parameter call: string, one of class 1 for active, class 0 for inactive

As a guide, the following entries are already answered.
> print(dat)
                        structure.as.smiles  class.label
1  COC(=O)[C@@H](N)CCCN/C(N)=N/[N+](=O)[O-]      class 0
2  COc1c(C(C)(C)C)cc([N+](=O)[O-])c(C)c1[N+](=O)[O-]      class 0
3           O=C1c2ccccc2C(=O)N1SC(Cl)(Cl)Cl      class 1
4  Cc1ccc(OP(=O)(Oc2ccc(C)cc2)Oc2ccc(C)cc2)cc1      class 0

From here, focus on the item given below.
// query Could you kindly confirm the outcome this assay logged for Nc1ccccc1 ?
// result class 0

###

test: Nuclear factor erythroid 2-related factor 2/antioxidant responsive element (Nrf2/ARE) small molecule agonists: luciferase reporter gene qHTS assay in human keratinocytes (AID 1919969); settings: KeratinoSens HaCaT ARE-luciferase, luminescence, 24 h; series mostly up to 92.4 µM; note: nearly all actives have a fitted effect of over 35% in size; note: potency is the fitted concentration of half-maximal effect
Inconclusive results are not listed. Active and inactive are the calls of the source. Calls follow the shape of the full dose curve.
Parameter: Potency

# annotated cases, reported Potency shown
> print(dat)
                                   compound  recorded.measurement
1                                  CC(C)C#N              inactive
2  COC(=O)c1cncn1C(C)c1ccccc1 (stereo not given)              inactive
3          CC(C)(OOC(C)(C)c1ccccc1)c1ccccc1      21.7 µM (active)
4                  CCOC(=O)c1ccccc1C(=O)OCC              inactive
5                                  OCCSSCCO              inactive

// query For the compound N#Cc1ccc(Cl)cc1 , report Potency.
// result inactive

// query For the compound O=[N+]([O-])c1cc(Cl)ccc1Cl , report Potency.
// result inactive

// query For the compound CCCC(=O)Cl , report Potency.
// result inactive

// query For the compound Brc1ccc(Oc2cc(Br)c(Br)cc2Br)c(Br)c1 , report Potency.
// result 12.3 µM (active)

// query For the compound C[N+](C)(C)CC(=O)[O-] , report Potency.
// result inactive

// query For the compound CCCCCCCCCCCCBr , report Potency.
// result inactive

// query For the compound O=C=NC1CCCCC1 , report Potency.
// result inactive

// query For the compound CC(Cl)C(=O)O (stereo not given) , report Potency.
// result inactive

// query For the compound COCC(=O)N(c1c(C)cccc1C)[C@H](C)C(=O)OC , report Potency.
// result inactive

// query For the compound Clc1nc(Cl)nc(Nc2ccccc2Cl)n1 , report Potency.
// result inactive
